For each of the compounds below, state its inhibition at 62.5 µg/mL.
target system: AChE (Electrophorus electricus, UniProt O42275)
Construct: obtaining AChE and BChE enzymes from electric eel and equine serum, respectively; from tissue; host or cells: electric eel
Sequence (O42275 24-633): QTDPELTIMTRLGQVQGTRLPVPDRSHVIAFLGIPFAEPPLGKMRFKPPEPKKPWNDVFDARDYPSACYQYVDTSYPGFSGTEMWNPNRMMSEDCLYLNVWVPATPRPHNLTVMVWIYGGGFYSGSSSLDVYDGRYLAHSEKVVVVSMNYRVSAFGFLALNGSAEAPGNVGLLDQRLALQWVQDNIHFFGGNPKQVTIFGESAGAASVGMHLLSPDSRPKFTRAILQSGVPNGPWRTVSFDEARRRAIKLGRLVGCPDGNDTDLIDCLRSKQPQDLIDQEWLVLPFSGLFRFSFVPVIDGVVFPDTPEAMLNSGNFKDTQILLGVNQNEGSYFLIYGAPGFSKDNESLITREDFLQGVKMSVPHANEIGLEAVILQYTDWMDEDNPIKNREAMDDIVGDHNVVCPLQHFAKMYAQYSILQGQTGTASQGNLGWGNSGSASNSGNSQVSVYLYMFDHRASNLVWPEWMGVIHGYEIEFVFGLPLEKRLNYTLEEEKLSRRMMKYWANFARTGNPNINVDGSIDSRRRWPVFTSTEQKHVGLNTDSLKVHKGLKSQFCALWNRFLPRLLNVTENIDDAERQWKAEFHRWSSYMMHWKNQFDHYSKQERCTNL
run description: biochemical
condition context: 62.5 µg/mL; read-out: AChE percent enzyme inhibition, Mean ± SEM
Numbers only, in %.

CN(C)c1ccc(/C=C/C(=O)/C=C/c2ccc(N(C)C)cc2)cc1 ... 31.4

Batch of 3 compounds: report inhibition at 62.5 µg/mL for each.
1. COc1ccc(/C=C/C(=O)/C=C/c2ccc(OC)cc2)cc1
2. Cc1ccc(/C=C/C(=O)/C=C/c2ccc(C)cc2)cc1
3. O=C(/C=C/c1ccc(Cl)cc1)/C=C/c1ccc(Cl)cc1

Result:
1: 46.9; 2: 45.6; 3: 53.5

----------
target system: AChE (Electrophorus electricus)
Construct: obtaining AChE and BChE enzymes from electric eel and equine serum, respectively; from tissue; host or cells: electric eel
run description: biochemical
condition context: 500 µg/mL; read-out: AChE percent enzyme inhibition, Mean ± SEM
property measured: inhibition at 500 µg/mL (%)
Answers are plain numbers, in %.

Batch of 4 molecules: report inhibition at 500 µg/mL for each.
1. COc1ccc(/C=C/C(=O)/C=C/c2ccc(OC)cc2)cc1
2. CN(C)c1ccc(/C=C/C(=O)/C=C/c2ccc(N(C)C)cc2)cc1
3. O=C(/C=C/c1ccc(Cl)cc1)/C=C/c1ccc(Cl)cc1
4. Cc1ccc(/C=C/C(=O)/C=C/c2ccc(C)cc2)cc1

Result:
1. 73.8
2. 58.2
3. 77.2
4. 68.1

----------
target system: BChE (Equus caballus, UniProt P81908)
Construct: obtaining AChE and BChE enzymes from electric eel and equine serum, respectively; from tissue; host or cells: equine serum
Sequence (P81908 whole entry): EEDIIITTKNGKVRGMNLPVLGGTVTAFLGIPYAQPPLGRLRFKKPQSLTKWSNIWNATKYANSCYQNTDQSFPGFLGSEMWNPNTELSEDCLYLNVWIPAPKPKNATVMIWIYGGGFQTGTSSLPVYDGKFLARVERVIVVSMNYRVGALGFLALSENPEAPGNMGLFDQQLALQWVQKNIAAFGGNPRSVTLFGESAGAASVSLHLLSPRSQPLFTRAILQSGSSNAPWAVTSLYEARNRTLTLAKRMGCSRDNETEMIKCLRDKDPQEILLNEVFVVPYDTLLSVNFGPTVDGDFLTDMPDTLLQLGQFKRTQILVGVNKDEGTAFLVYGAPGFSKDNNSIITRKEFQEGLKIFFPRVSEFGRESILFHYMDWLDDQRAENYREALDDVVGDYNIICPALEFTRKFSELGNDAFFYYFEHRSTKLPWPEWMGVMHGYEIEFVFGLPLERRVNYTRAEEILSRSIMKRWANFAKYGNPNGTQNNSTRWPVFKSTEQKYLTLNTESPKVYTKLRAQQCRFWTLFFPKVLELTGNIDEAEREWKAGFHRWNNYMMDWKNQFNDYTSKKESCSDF
run description: biochemical
condition context: 62.5 µg/mL; read-out: BChE percent enzyme inhibition, Mean ± SEM
property measured: inhibition at 62.5 µg/mL (%)
Numbers only, in %.

Batch of 2 compounds: report inhibition at 62.5 µg/mL for each.
1. CN(C)c1ccc(/C=C/C(=O)/C=C/c2ccc(N(C)C)cc2)cc1
2. COc1ccc(/C=C/C(=O)/C=C/c2ccc(OC)cc2)cc1

Result:
1: 27.2; 2: 41.8

Batch of 2 compounds: report inhibition at 62.5 µg/mL for each.
1. O=C(/C=C/c1ccc(Cl)cc1)/C=C/c1ccc(Cl)cc1
2. Cc1ccc(/C=C/C(=O)/C=C/c2ccc(C)cc2)cc1

Result:
[49.2, 37.2]
